system: human GPR120 (Homo sapiens)
Construct: host or cells: HEK293 cells coexpressing Gqi5
Sequence (Q5NUL3 whole entry): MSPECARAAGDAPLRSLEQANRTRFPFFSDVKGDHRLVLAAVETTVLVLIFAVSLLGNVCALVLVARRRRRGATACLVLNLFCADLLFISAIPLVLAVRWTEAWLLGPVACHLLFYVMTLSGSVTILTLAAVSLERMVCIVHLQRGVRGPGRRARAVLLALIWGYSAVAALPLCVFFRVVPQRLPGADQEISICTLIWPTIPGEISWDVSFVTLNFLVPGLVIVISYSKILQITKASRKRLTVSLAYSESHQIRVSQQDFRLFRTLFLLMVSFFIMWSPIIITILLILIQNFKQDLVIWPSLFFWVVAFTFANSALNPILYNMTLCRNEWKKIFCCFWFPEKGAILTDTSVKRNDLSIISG
test_details: Intracellular Ca2+ (FLIPR Calcium 4, Flexstation) assay in human GPR120 stable HEK293 cell line coexpressing Gqi5
Format: cell-based
measurement_context: 5 μM compound compared to the maximal activity of GW9508 at 6.7 μM (100%)
Procedure: Human GPR120 stable cell line was purchased from Multispan Inc (26219 Eden Landing Road, Hayward, Calif. 94545). This GPR120 cell line was generated in HEK293 cells coexpressing Gqi5. […] The concentration of intracellular Ca^2+ was measured as described below. […] Compounds were dissolved in 100% DMSO and diluted to desired concentrations with assay buffer and placed in Flexstation simultaneously with the cell plate for 20 minute incubation at 37° C. prior to reading. […]
Provide the reported % Activity at 5 μM of each item.
Please respond with the number in % and leave the unit unwritten.

Ask: Record lookup: for human GPR120 (Homo sapiens), what % Activity at 5 μM belongs to Cc1cc(COc2c(F)cc(C3CC3C(=O)O)cc2F)n(-c2ccccc2)n1 (stereo not drawn) ?
Reply: 71

Ask: State its % Activity at 5 μM on human GPR120 (Homo sapiens): CCc1ccc(-n2nc(C)cc2COc2ccc3c(c2)CCCC3CC(=O)O)cc1 (stereo not drawn)
Reply: 67

Ask: Give recorded % Activity at 5 μM with human GPR120 (Homo sapiens) for the following compound: O=C(O)CCc1cc(F)c(OCc2snnc2-c2ccc(Cl)cc2)c(F)c1
Reply: 88

Ask: % Activity at 5 μM of Cc1cc(COc2c(F)cc(CC(F)C(=O)O)cc2F)n(-c2ccc(Cl)cc2)n1 (stereo not drawn) on human GPR120 (Homo sapiens)?
Reply: 48

Ask: Identify the measured % Activity at 5 μM of Cc1cc(COc2c(F)cc(CC(C)C(=O)O)cc2F)n(-c2cccc(Cl)c2)n1 (stereo not drawn) for human GPR120 (Homo sapiens).
Reply: 107

Ask: Hi! What's the reported % Activity at 5 μM for Cc1nc(-c2ccccc2)c(COc2c(F)cc(CCC(=O)O)cc2F)s1 on human GPR120 (Homo sapiens)?
Reply: 80

Ask: Notebook entry, human GPR120 (Homo sapiens) assay: % Activity at 5 μM of O=C(O)CCc1cc(F)c(OCc2nccn2Cc2ccccc2)c(F)c1 = ?
Reply: 75

Ask: Recall the recorded % Activity at 5 μM for CCc1ccc(-n2nc(C)cc2COc2ccc(C(C)(C)CC(=O)O)cc2)cc1 with human GPR120 (Homo sapiens) and state it.
Reply: 48

Ask: Quick check: % Activity at 5 μM on human GPR120 (Homo sapiens), item Cc1cnn(-c2ccc(F)cc2)c1COc1c(F)cc(CCC(=O)O)cc1F ?
Reply: 81

Ask: Lab note: need % Activity at 5 μM for Cc1cc(COc2c(F)cc(CC(C)C(=O)O)cc2F)n(-c2ccc(C(C)C)cc2)n1 (stereo not drawn) on human GPR120 (Homo sapiens), anyone have it?
Reply: 85

Ask: Please state recorded % Activity at 5 μM (tested on human GPR120 (Homo sapiens)) of Cc1cc(COc2c(F)cc(CC(C)C(=O)O)cc2F)n(-c2ccc(C3CCCCC3)cc2)n1 (stereo not drawn)
Reply: 27

Ask: Lab request: please report % Activity at 5 μM under test system human GPR120 (Homo sapiens) for CCc1ccc(-n2nc(C)cc2COc2ccc(CC(C)C(=O)O)cc2F)cc1 (stereo not drawn)
Reply: 99

Ask: Reported % Activity at 5 μM for human GPR120 (Homo sapiens), given Cc1cc(COc2c(F)cc(CC3CC3C(=O)O)cc2F)n(-c2ccc(Cl)cc2)n1 (stereo not drawn) ?
Reply: 66

Ask: Look up % Activity at 5 μM with human GPR120 (Homo sapiens) for this compound: Cc1cc(COc2c(F)cc(CCC(=O)O)cc2F)n(-c2ccc(Cl)cc2)n1
Reply: 85

Ask: Lab note: need % Activity at 5 μM for CCc1ccc(-n2nccc2COc2c(F)cc(CC(C)C(=O)O)cc2F)cc1 (stereo not drawn) on human GPR120 (Homo sapiens), anyone have it?
Reply: 109

Ask: API: value(readout= % Activity at 5 μM, system= human GPR120 (Homo sapiens), query= O=C(O)CCc1cc(F)c(OCc2snnc2-c2ccc(F)c(F)c2)c(F)c1 )
Reply: 72

Ask: Form: Entry = O=C(O)CCc1cc(F)c(OCc2ccnn2-c2ccccc2)c(F)c1 | System = human GPR120 (Homo sapiens) | % Activity at 5 μM = ____
Reply: 73

Ask: Request: % Activity at 5 μM, test system human GPR120 (Homo sapiens), entry Cc1cc(COc2c(F)cc(CC(C)C(=O)O)cc2F)n(-c2ncc(Cl)cn2)n1 (stereo not drawn)
Reply: 19
